Experiment: Oral bioavailability in rat at 10 mg/kg
Format: ADME, organism-based
Details: in vivo
Listed next: entries and their corresponding bioavailability.
Only the number, expressed in %, is required.

C[C@@H](OC[C@@]1(c2ccccc2)CC[C@H](C(N)=O)CN1)c1cc(C(F)(F)F)cc(C(F)(F)F)c1
68

Item: CC(=O)N[C@H]1CC[C@@](CO[C@H](C)c2cc(C(F)(F)F)cc(C(F)(F)F)c2)(c2ccccc2)NC1 | bioavailability: 63

----------
Parameter AUC(0-t) at 6 h: see the listing below.
Assay: AUC (0 to 6 hrs) in rat at 10 mg/kg, po after 6 hrs
Type: ADME, organism-based
Set-up: time < 6 hr, dose 10 mg/kg, route oral
Conditions: plasma
Use ng·h/mL as the unit, but write only the number.

Reference set, count: 3
CNC(=O)[C@@H]1CC[C@@](CO[C@H](C)c2cc(C(F)(F)F)cc(C(F)(F)F)c2)(c2ccccc2)NC1
166
CCNC(=O)[C@H]1CC[C@@](CO[C@H](C)c2cc(C(F)(F)F)cc(C(F)(F)F)c2)(c2ccccc2)NC1
3680
C[C@@H](OC[C@@]1(c2ccccc2)CC[C@H](C(=O)NC2CC2)CN1)c1cc(C(F)(F)F)cc(C(F)(F)F)c1
1940

Next item in the queue.
C[C@@H](OC[C@@]1(c2ccccc2)CC[C@@H](C(N)=O)CN1)c1cc(C(F)(F)F)cc(C(F)(F)F)c1 yielded AUC(0-t) at 6 h of 1690
